Assignment: determine reported yeast fitness for the given variants.
B1: tRNA (parent)
chain: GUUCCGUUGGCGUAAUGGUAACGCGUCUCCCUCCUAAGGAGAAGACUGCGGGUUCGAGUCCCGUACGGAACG

- Variants of: B1
- experiment_summary: yeast fitness relative to wild type (ratio to wild type); higher = fitter; tRNA-Arg(CCU), competitive growth, 37 C, YPD
This sample holds only a part of the variants without activity.
One number for each entry.

Worked cases, answers included:
mutation_key	yeast fitness
A20G G25A C62U A65C	0.813
C29A A70G	0.723
C55U A57U	0.634
C49G C66A	0.654
U35G A65C	0.639

// input: 3 variants below; output: yeast fitness for each
1. C27U C62G
2. U28C A57C
3. C5G A36G A43U

[0.669, 0.586, 0.549]

Below are 8 variants. Give each one its yeast fitness.
1. C5G A21G
2. G6A C27U A57U
3. G10A A14C G17A C22G C24G C30A
4. U13A A21C U35C G39A A42C A43G C46U A65C
5. A14C A20U C31U G38C G67A
6. C4G C29G A37G
7. C29U C30G U59A
8. U2G A40U C49A

1. 0.997
2. 0.544
3. 0.775
4. 0.55
5. 0.53
6. 0.598
7. 0.617
8. 0.547
